- Test system: TNF-α production in THP-1 cells
- testProtocol: TNF-α Production Assay in THP-1 Cells (LPS stimulated)
- Type: cell-based
- conditionSet: Homo sapiens, THP-1, 24 h
pIC50: −log10 of the molar value.
valueType: pIC50

As a guide, the following entries are already answered.
moleculeSmiles: COc1cc(N2CC(C(=O)N3CCN([C@H]4CC[C@H](n5cc6cc(NC(=O)c7ccc8cc(C#N)cnn78)c(C(C)(C)O)cc6n5)CC4)CC3)C2)ccc1[C@H]1CCC(=O)NC1=O
tgt: TNF-α production in THP-1 cells
pIC50: 7.72
//
moleculeSmiles: CC(C)(O)c1cc2nn(C34CC(N5CCN(CC6CN(c7cc(F)c([C@H]8CCC(=O)NC8=O)c(F)c7)C6)CC5)(C3)C4)cc2cc1NC(=O)c1ccc2cc(C#N)cnn12
tgt: TNF-α production in THP-1 cells
pIC50: 8.12
//
moleculeSmiles: COC[C@H]1CN([C@H]2CC[C@H](n3cc4cc(NC(=O)c5ccc6cc(C#N)cnn56)c(C(C)(C)O)cc4n3)CC2)CCN1C1CCN(c2cc(F)c([C@H]3CCC(=O)NC3=O)c(F)c2)CC1
tgt: TNF-α production in THP-1 cells
pIC50: 7.39

I = C[C@@H]1CN(CCc2cc(F)c([C@H]3CCC(=O)NC3=O)c(F)c2)CCN1[C@H]1CC[C@H](n2cc3cc(NC(=O)c4ccc5cc(C#N)cnn45)c(C(C)(C)O)cc3n2)CC1
II = CC(C)(O)c1cc2nn([C@H]3C[C@H](N4CCN(C(=O)C5CN(c6cc(F)c([C@H]7CCC(=O)NC7=O)c(F)c6)C5)CC4)C3)cc2cc1NC(=O)c1ccc2cc(C#N)cnn12
III = COc1cc(N2CC(C(=O)N3CCN([C@H]4CC[C@H](n5cc6cc(NC(=O)c7ccc8cc(C#N)cnn78)c7c(c6n5)OCO7)CC4)CC3)C2)ccc1[C@H]1CCC(=O)NC1=O
Sort these compounds on pIC50 so the largest reading comes first. Your reply should list the labels following the order given in the request.
II, III, I
